- TEST TARGET: T1, human TIGIT ECD-mFc (fusion protein of extracellular domain of human TIGIT and mouse IgG2a Fc fragment) (human)
- T1 chain: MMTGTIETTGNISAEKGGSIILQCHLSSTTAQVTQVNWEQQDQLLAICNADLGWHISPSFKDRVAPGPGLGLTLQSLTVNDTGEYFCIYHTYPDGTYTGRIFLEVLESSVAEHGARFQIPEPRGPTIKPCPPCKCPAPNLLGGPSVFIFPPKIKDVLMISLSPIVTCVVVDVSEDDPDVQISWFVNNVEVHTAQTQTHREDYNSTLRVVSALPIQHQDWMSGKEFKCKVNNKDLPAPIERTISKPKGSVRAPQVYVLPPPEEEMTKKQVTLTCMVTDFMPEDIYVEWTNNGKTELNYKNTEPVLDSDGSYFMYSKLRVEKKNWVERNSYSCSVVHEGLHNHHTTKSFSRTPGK
- PROCEDURE DETAILS: ELISA
pEC50: −log10 of the molar value.

[
  {
    "BINDER": "TIGIT-CHI-070 (antibody, V domains shown, human-mouse chimeric antibody) VH: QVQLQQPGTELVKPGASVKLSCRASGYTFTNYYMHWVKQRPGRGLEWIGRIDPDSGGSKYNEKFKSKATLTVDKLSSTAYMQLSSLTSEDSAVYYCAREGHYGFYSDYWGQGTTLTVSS VL: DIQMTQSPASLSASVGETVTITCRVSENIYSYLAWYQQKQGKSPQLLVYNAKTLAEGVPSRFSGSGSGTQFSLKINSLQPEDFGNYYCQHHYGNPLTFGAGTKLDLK",
    "pEC50": 10.84
  },
  {
    "BINDER": "TIGIT-CHI-002 (antibody, V domains shown, human-mouse chimeric antibody) VH: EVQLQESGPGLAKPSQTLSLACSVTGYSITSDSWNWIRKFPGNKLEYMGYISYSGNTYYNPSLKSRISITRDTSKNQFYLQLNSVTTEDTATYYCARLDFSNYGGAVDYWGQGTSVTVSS VL: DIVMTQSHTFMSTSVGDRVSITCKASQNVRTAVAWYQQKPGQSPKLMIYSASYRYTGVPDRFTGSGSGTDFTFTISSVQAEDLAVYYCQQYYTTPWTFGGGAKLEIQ",
    "pEC50": 10.74
  },
  {
    "BINDER": "TIGIT-CHI-005 (antibody, V domains shown, human-mouse chimeric antibody) VH: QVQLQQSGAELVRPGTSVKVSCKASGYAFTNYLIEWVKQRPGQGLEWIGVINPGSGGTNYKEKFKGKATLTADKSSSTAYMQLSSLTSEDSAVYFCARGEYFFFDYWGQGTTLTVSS VL: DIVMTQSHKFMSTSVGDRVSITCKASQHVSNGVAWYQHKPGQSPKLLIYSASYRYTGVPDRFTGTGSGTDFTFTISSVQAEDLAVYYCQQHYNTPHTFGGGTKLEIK",
    "pEC50": 10.76
  },
  {
    "BINDER": "TIGIT-CHI-006 (antibody, V domains shown, human-mouse chimeric antibody) VH: EVQLQESGPGLAKPSQTPSLTCSVTGYSMTSDYWNWIRKFPGNKLEYMGYISYSGRTYYNPSLKSRISITRDTSKNQFYLQLNSVTTEDTATYYCARGDYSNYGGAMYDWGQGTSVTVSS VL: DIVMTQSHKFMSTSVGDRVSITCRASQGVSTTIAWYQQKPGQSPKLLIYSASYRYTGVPDRFTGSGSGTDFTFTISGVQAEDLAVYYCQQYYSSPFTFGGGTKLEIK",
    "pEC50": 10.78
  }
]
